testSystem: T1, human vascular endothelial growth factor receptor-2 Fc chimera (KDR-Fc) (human, UniProt P35968 20-764)
T1 construct: range 1-764; purchased from R&D Systems; also called hKDR; human VEGF-R2-Fc; not shown: human IgG1 Fc
T1 sequence (P35968 20-764 limits assumed, change not shown, form in doubt): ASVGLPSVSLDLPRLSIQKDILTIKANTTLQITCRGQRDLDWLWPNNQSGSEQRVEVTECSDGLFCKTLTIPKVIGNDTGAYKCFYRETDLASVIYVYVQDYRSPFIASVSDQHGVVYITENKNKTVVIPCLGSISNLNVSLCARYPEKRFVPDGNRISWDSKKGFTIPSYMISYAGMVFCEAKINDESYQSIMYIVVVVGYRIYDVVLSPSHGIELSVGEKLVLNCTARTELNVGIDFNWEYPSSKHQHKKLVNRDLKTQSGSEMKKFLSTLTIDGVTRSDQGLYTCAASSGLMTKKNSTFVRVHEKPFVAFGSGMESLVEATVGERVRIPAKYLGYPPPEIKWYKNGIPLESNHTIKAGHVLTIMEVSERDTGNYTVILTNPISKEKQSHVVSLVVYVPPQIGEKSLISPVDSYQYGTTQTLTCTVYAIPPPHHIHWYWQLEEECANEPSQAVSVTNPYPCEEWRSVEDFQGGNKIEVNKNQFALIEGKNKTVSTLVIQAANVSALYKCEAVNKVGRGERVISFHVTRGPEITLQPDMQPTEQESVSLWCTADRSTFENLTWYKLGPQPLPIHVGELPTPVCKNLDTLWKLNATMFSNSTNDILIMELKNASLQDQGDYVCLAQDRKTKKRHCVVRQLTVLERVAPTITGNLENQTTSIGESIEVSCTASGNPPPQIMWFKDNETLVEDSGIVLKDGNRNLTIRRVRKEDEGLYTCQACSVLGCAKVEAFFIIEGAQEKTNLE
assayName: radioactive equilibrium binding, 1 nM KDR-Fc
Procedure: To prepare ³⁵S-labeled binding proteins for analysis, mRNA was prepared as described above for RNA-protein fusion production but the linker ligation step was omitted. […] 50 μA of the reaction mixture and elution were dried onto a LumaPlate-96 (Packard) and the amount of ³⁵S on the plate was measured using a TopCount NXT instrument (Packard). […] Data was analyzed using the GraphPad Prizm software (GraphPad Software, Inc, San Diego, Calif.), fitted using a one site, non-linear binding equation.
Each item that follows carries a reported Binding to 1 nM KDR, %.

>  <binder>
2H12 PR3 (designed binder, tag left out) VSDVPRDLEVVAATPTSLLISWRHPHFPTRYYRITYGETGGNSPVQEFTVPLQPPTATISGLKPGVDYTITGYAVTEGYQNHELSVPISINYRT

>  <Binding to 1 nM KDR, %>
10%

$$$$
>  <binder>
1′DelG9 PR4 (designed binder, tag left out) EVVAATPTSLLISWRHPHFPTRYYRITYGETGGNSPVQEFTVPLQPPTATISGLKPGVDYTITGYAVTVAQSDHELMTPISINYRT

>  <Binding to 1 nM KDR, %>
10%

$$$$
>  <binder>
3′E6 PR4 (designed binder, tag left out) EVVAATPTSLLISWRHPHFPTRYYRITYGETGGNSPVQEFTVPLQPPTATISGLKPGVDYTITGYAVTFGQNGKEFRIPISINYRT

>  <Binding to 1 nM KDR, %>
5%

$$$$
>  <binder>
2′A1-PR4 (designed binder, tag left out) VSDVPRDLEVVAATPTSLLISWRHPHFPTRYYRITYGETGGNSPVQEFTVPLQPPTATISGLKPGVDYTITGYAVTSGHNDHMLMIPISINYRT

>  <Binding to 1 nM KDR, %>
11%

$$$$
>  <binder>
2C12 PR3 (designed binder, tag left out) VSDVPRDLEVVAATPTSLLISWRHPHFPTRYYRITYGETGGNSPVQEFTVPLQPPTATISGLKPGVDYTITGYAVTDAQNVQAPIAQISINYRT

>  <Binding to 1 nM KDR, %>
6%

$$$$
>  <binder>
3′A3 PR4 (designed binder, tag left out) EVVAATPTSLLISWRHPHFPTRYYRITYGETGGNSPVQEFTVPLQPPTATISGLKPGVDYTITGYAVTRAQNDHELITPISINYRT

>  <Binding to 1 nM KDR, %>
9%

$$$$
>  <binder>
1′DelH1 PR4 (designed binder, tag left out) EVVAATPTSLLISWRHPHFPTRYYRITYGETGGNSPVQEFTVPLQPPTATISGLKPGVDYTITGYAVTVAQNGHELITPISINYRT

>  <Binding to 1 nM KDR, %>
9%

$$$$
>  <binder>
1′DelH7 PR4 (designed binder, tag left out) EVVAATPTSLLISWRHPHFPTRYYRITYGETGGNSPVQEFTVPLQPPTATISGLKPGVDYTITGYAVTVGQNDQELLTPISINYRT

>  <Binding to 1 nM KDR, %>
11%

$$$$
>  <binder>
2′A11-PR4 (designed binder, tag left out) VSDVPRDLEVVAATPTSLLISWRHPHFPTRYYRITYGETGGNSPVQEFTVPLQPPTATISGLKPGVDYTITGYAVTEDIRVLWLNTTISINYRT

>  <Binding to 1 nM KDR, %>
6%

$$$$
